tested target: Mu-type opioid receptor (Cavia porcellus) (UniProt P97266)
Sequence (P97266 whole entry): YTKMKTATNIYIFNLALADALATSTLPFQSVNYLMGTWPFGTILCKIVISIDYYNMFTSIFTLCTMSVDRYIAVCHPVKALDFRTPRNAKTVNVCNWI
assay overview: Opioid receptor mu 1 Antagonism (100 nM) is expressed as (Ke = [antagonist] / (IC50 ratio -1)
Format: functional
Below, each entry is listed alongside its reported log10(Ke).
reported property: log10(Ke) (log10 of the value in nM)

>>> df
                           smiles_structure  reported_measurement
0  Nc1ccc2[nH]c3c(c2c1)C[C@@]1(O)C2Cc4ccc(O)c5c4[C@@]1(CCN2CC1CC1)[C@H]3O5                  1.76
1  N=C(N)/N=C(\N)Nc1ccc2[nH]c3c(c2c1)C[C@@]1(O)C2Cc4ccc(O)c5c4[C@@]1(CCN2CC1CC1)[C@H]3O5                  1.15
2  N=C(N)NCc1ccc2[nH]c3c(c2c1)C[C@@]1(O)[C@H]2Cc4ccc(O)c5c4[C@@]1(CCN2CC1CC1)[C@H]3O5                  1.04
3  C[N+](C)(C)Cc1ccc2[nH]c3c(c2c1)C[C@@]1(O)C2Cc4ccc(O)c5c4[C@@]1(CCN2CC1CC1)[C@H]3O5                  0.60
4  N=C(N)NCCc1ccc2[nH]c3c(c2c1)C[C@@]1(O)[C@H]2Cc4ccc(O)c5c4[C@@]1(CCN2CC1CC1)[C@H]3O5                  1.08
5  CSC(=N)Nc1ccc2[nH]c3c(c2c1)C[C@@]1(O)C2Cc4ccc(O)c5c4[C@@]1(CCN2CC1CC1)[C@H]3O5                  1.20
6  CN(C)Cc1ccc2[nH]c3c(c2c1)C[C@@]1(O)C2Cc4ccc(O)c5c4[C@@]1(CCN2CC1CC1)[C@H]3O5                  0.99

###

// values below are Ki; system is UniProtKB P34975
Sequence (P34975 whole entry): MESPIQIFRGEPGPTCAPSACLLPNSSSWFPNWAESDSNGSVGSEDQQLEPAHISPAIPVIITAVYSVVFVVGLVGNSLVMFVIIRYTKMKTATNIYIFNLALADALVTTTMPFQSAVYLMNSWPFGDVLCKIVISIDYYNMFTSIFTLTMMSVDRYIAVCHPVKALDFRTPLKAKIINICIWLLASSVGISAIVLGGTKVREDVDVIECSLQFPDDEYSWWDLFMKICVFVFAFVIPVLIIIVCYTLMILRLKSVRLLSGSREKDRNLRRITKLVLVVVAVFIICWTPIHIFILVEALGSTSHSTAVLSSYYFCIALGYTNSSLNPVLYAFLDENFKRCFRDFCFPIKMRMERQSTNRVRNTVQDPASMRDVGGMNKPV

molecule	quantity unit	Ki
N=C(N)N=C(N)Nc1ccc2[nH]c3c(c2c1)C[C@@]1(O)C2Cc4ccc(O)c5c4[C@@]1(CCN2CC1CC1)[C@H]3O5	nM	0.226
N=C(N)NCc1ccc2[nH]c3c(c2c1)C[C@@]1(O)[C@H]2Cc4ccc(O)c5c4[C@@]1(CCN2CC1CC1)[C@H]3O5	nM	0.745
N=C(N)Cc1ccc2[nH]c3c(c2c1)C[C@@]1(O)C2Cc4ccc(O)c5c4[C@@]1(CCN2CC1CC1)[C@H]3O5	nM	0.214
Oc1ccc2c3c1O[C@H]1c4[nH]c5c(c4C[C@@]4(O)[C@@H](C2)N(CC2CC2)CC[C@]314)C[C@@]1(O)[C@H]2Cc3ccc(O)c4c3[C@@]1(CCN2CC1CC1)[C@H]5O4 [NORBINALTORPHIMINE]	nM	0.244
CN1CC[C@]23c4c5ccc(O)c4O[C@H]2c2[nH]c4ccc(N=C(N)N)cc4c2C[C@@]3(O)C1C5	nM	2.83
N#CN=C(N)Nc1ccc2[nH]c3c(c2c1)C[C@@]1(O)C2Cc4ccc(O)c5c4[C@@]1(CCN2CC1CC1)[C@H]3O5	nM	4.46
C[N+](C)(C)Cc1ccc2[nH]c3c(c2c1)C[C@@]1(O)C2Cc4ccc(O)c5c4[C@@]1(CCN2CC1CC1)[C@H]3O5	nM	0.354
N=C(N)Nc1ccc2[nH]c3c(c2c1)C[C@@]1(O)[C@H]2Cc4ccc(O)c5c4[C@@]1(CCN2CC1CC1)[C@H]3O5 [GUANIDINONALTRINDOLE]	nM	0.18
CN(C)Cc1ccc2[nH]c3c(c2c1)C[C@@]1(O)C2Cc4ccc(O)c5c4[C@@]1(CCN2CC1CC1)[C@H]3O5	nM	0.823
N=C(N)NCCc1ccc2[nH]c3c(c2c1)C[C@@]1(O)[C@H]2Cc4ccc(O)c5c4[C@@]1(CCN2CC1CC1)[C@H]3O5	nM	0.507
N=C(N)c1ccc2[nH]c3c(c2c1)C[C@@]1(O)C2Cc4ccc(O)c5c4[C@@]1(CCN2CC1CC1)[C@H]3O5	nM	0.529
